Cited source for all entries: ChEMBL document CHEMBL3885861

# Species: Rattus norvegicus
# protocol-description: Open TG-GATES - Regimen: Daily Repeat
# Format: toxicity, organism-based, Sprague-Dawley
# Set-up: regimen Daily Repeat, gender Male, age 6 weeks
# experimental-conditions: in vivo, po, 0 mg/kg, 72 h, tissue Blood, route gavage, dose level Control, time 3 day
Would you mind telling me the reported Mono of each entry?
Numbers only; they are read as %.

The reported value for CC1=C(CC(=O)O)c2cc(F)ccc2/C1=C\c1ccc([S+](C)[O-])cc1 (stereo unspecified) in terms of Mono is 2.2

Per the records, this compound ( CC[C@H]1[C@@H]2C[C@H]3[C@@H]4N(C)c5ccccc5[C@]45C[C@@H]([C@@H]2[C@H]5O)N3[C@@H]1O [AJMALINE] ) has Mono equal to 10.4

Per the records, this compound ( CN(C)C(=N)N=C(N)N [METFORMIN] ) has Mono equal to 3.4

Briefly, Mono measured for CC(C)N(CCC(C(N)=O)(c1ccccc1)c1ccccn1)C(C)C (stereo unspecified) [DISOPYRAMIDE] : 2.8

Mono measured on CN(C)CCC=C1c2ccccc2COc2ccccc21 [DOXEPIN] = 2.8

For this compound ( CCc1oc2ccccc2c1C(=O)c1cc(Br)c(O)c(Br)c1 [BENZBROMARONE] ), measured Mono is 6.6

Looking up OCCOCCN1CCN(C(c2ccccc2)c2ccc(Cl)cc2)CC1 (stereo unspecified) [HYDROXYZINE] , I see its Mono listed as 3.2

Item: CCC1(c2ccccc2)C(=O)NC(=O)NC1=O [PHENOBARBITAL] | Mono: 7.4

Short answer for ClC(Cl)(Cl)Cl [CARBON TETRACHLORIDE] : Mono was 2.8

Mono measured on CCCCc1oc2ccccc2c1C(=O)c1cc(I)c(OCCN(CC)CC)c(I)c1 [AMIODARONE] = 3

Recorded result, O=NN(CCCl)C(=O)NC1CCCCC1 [LOMUSTINE] , Mono: 6.4
